experiment: Particle size and polydispersity index of nanoparticle compositions (Zetasizer Nano ZS); type: physicochemical; conditions: Table 1C; compositions for subcutaneous administration
# key: entry, value: Size (nm)
Write the answer as a number in nm, unit excluded.

Before answering, review these 3 worked examples.
INSERT INTO results (molecule, units_text, data_value) VALUES
  ('CCCCCCCCC(C)OC(=O)CCCCCN(CCO)CCCCCCCC(=O)OC(CCCCCCCC)CCCCCCCC (stereo not shown) [Compound 122]', 'nm', 80.2),
  ('CCCCCCCCC(CC)OC(=O)CCCCCN(CCO)CCCCCCCC(=O)OC(CCCCCCCC)CCCCCCCC (stereo not shown) [Compound 75]', 'nm', 88.6),
  ('CCCCCCCCCCCOC(=O)CCCCCN(CCO)CCCCCCCC(=O)OC(CCCCCCCC)CCCCCCCC [Compound 25]', 'nm', 76.3);

Sample CCCCCCCCCOC(=O)CCCCCCCN(CCO)CCCCCCCOC(=O)C(CCCCCCCC)CCCCCCCC [Compound 30] — what was its Size (nm)?
81.7

###

assay: Particle size and polydispersity index of nanoparticle compositions (Zetasizer Nano ZS); assay type: physicochemical; settings: lipid nanoparticle, ±SD within one assay run (Table 37)
I'd appreciate it if you marked entries true (1) when PDI (Polydispersity index) is lower than 0.1 and false (0) when it is not.

Quick check: PDI (Polydispersity index) of CCCCC/C=C\C/C=C\CCCCCCCCN(CCO)CCCCCCCC(=O)OCCCCCCCCC [Compound 136] under 0.1?
false (0)

###

assay: Apparent (surface) pKa of the LNP formulation (TNS assay); assay type: physicochemical; details: Table 1A
Would you please tag the item label 1 when its pKa is 7 or above, and label 0 when it is below?

As a guide, the following entries are already answered.
INSERT INTO results (compound, qualitative_label) VALUES
  ('CCCCCCCCC(CCCCCCCC)OC(=O)CCCCCCCN(CCO)CCCCCCCC(=O)OCC(C)CCCCCCC (stereo not shown)', 'label 0'),
  ('CCCCCCCCCC(=O)OC(C)CCCCCCN(CCO)CCCCCCCC(=O)OC(CCCCCCCC)CCCCCCCC (stereo not shown)', 'label 0'),
  ('CCCCCCCCC(CC)OC(=O)CCCN(CCO)CCCCCCCC(=O)OC(CCCCCCCC)CCCCCCCC (stereo not shown)', 'label 0');

For this compound, is measured pKa 7 or higher? CCCCCCCCCOC(=O)CCCCCCCN(CCCCCCCC(=O)OC(CCCCCCCC)CCCCCCCC)CCCn1ccnn1
label 0

For this compound, is measured pKa 7 or higher? CCCCCCCCCOC(=O)CCCN(CCO)CCCCCCCC(=O)OC(CCCCCCCC)CCCCCCCC
label 0

For this compound, is measured pKa 7 or higher? CCCCCCCCCOC(=O)CCCCCCCN(CCO)CCCCCCCC(=O)OC1CCC(C2CCCCC2)CC1 (stereo not shown)
label 1

For this compound, is measured pKa 7 or higher? CCCCCCCCC(CCCCCCCC)OC(=O)CCCCCCCN(CCO)CCCCCCCC(=O)O[C@H](C)CCCCCCCC
label 0

For this compound, is measured pKa 7 or higher? CCCCCCCCCN(CCCO)CCCCCCCC(=O)OC(CCCCCCCC)CCCCCCCC
label 0

For this compound, is measured pKa 7 or higher? CCCCCCCCCOC(=O)CCCCCCCN(CCCCCCCC(=O)OC(CCCCCCCC)CCCCCCCC)CCCNC(=O)NC
label 1

For this compound, is measured pKa 7 or higher? CCCCCCCCCOC(=O)CCCCCCCN(CCCCCCCC(=O)OC(CCCCCCCC)CCCCCCCC)CCN(C)C
label 0

For this compound, is measured pKa 7 or higher? CCCCCCCCCOC(=O)CCCCCCCN(CCCCCCCC(=O)OC(CCCCCCCC)CCCCCCCC)CCCN/C(=C/[N+](=O)[O-])NC
label 0

For this compound, is measured pKa 7 or higher? CCCCCCCCCOC(=O)CCCCCCCN(CCO)CCCCCCCCCOC(=O)C(CCCCCC)CCCCCCCC (stereo not shown)
label 0
